Values were extracted from ChEMBL document CHEMBL3991601.

In what follows, each item is paired with its Kd for Receptor-type tyrosine-protein kinase FLT3 (Homo sapiens).
Active and inactive are the calls of the source.

item smiles	Kd
N[C@@H]1CCCN(c2c(/C=C3\SC(=O)NC3=O)cccc2-c2ccccc2)C1	> 30 µM (inactive)
CO[C@H]1C[C@@H]2CC[C@@H](C)[C@@](O)(O2)C(=O)C(=O)N2CCCC[C@H]2C(=O)O[C@H]([C@H](C)C[C@@H]2CC[C@@H](OCCO)[C@H](OC)C2)CC(=O)[C@H](C)/C=C(\C)[C@@H](O)[C@@H](OC)C(=O)[C@H](C)C[C@H](C)/C=C/C=C/C=C/1C	> 30 µM (inactive)
Cc1ccc(NC(=O)c2ccc(CN3CC[C@H](N(C)C)C3)c(C(F)(F)F)c2)cc1Nc1nccc(-c2cncnc2)n1	> 30 µM (inactive)

----------
Calls of active or inactive are those of the source.
In what follows, each item is paired with its Kd for Serine/threonine-protein kinase PAK 2 (Homo sapiens).
observed property: Kd

> print(dat)
                                item.smiles               value
1  COc1ccc(-c2ccc3c(N4CCOC[C@@H]4C)nc(N4CCOC[C@@H]4C)nc3n2)cc1CO  > 30 µM (inactive)
2  CC(C)Nc1cc(-c2c[nH]c(C(=O)N[C@H](CO)c3cccc(Cl)c3)c2)c(Cl)cn1  > 30 µM (inactive)
3  CNC(=O)c1ccc(-c2cnc3ncc(Cc4ccc5ncccc5c4)n3n2)cc1F  > 30 µM (inactive)
4  N[C@@H]1CCCN(c2c(/C=C3\SC(=O)NC3=O)cccc2-c2ccccc2)C1  > 30 µM (inactive)

----------
Biological target: Ephrin type-A receptor 4 (Homo sapiens); also: in the data inactive means no Kd found up to 30 µM
Sequence (P54764 whole entry): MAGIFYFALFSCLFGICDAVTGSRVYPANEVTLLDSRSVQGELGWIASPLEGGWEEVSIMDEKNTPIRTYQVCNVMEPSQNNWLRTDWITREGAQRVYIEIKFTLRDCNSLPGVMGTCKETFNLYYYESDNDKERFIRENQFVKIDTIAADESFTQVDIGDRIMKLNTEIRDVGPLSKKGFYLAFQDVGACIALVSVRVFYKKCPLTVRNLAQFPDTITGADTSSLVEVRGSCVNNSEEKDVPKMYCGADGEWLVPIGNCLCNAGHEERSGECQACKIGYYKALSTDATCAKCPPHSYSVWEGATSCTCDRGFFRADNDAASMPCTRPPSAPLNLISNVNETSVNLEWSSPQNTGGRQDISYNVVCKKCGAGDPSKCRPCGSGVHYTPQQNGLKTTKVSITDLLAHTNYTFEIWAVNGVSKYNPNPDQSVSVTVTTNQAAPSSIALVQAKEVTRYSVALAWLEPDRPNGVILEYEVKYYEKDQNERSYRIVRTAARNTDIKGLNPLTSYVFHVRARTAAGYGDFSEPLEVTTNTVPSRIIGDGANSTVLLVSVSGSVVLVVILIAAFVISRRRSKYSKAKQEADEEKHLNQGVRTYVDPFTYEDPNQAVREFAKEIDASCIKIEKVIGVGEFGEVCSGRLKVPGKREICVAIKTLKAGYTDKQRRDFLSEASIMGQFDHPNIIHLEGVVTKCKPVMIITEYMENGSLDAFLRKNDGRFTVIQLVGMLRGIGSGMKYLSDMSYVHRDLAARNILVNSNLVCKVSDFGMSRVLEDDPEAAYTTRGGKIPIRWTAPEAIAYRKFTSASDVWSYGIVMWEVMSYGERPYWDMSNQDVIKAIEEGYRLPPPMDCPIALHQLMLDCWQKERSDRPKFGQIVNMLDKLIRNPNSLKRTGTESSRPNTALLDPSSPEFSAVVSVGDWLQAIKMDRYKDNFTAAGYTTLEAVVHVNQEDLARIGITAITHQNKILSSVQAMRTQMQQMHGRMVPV
The source made the active and inactive calls.
Labels: y (active), n (inactive)

> print(dat)
                                   compound  assigned.category
1  CN1CCC(COc2cnc(-c3cccc(Cn4nc(-c5cccc(C#N)c5)ccc4=O)c3)nc2)CC1 [TEPOTINIB]                  n
2  CC(C)Nc1cc(-c2c[nH]c(C(=O)N[C@H](CO)c3cccc(Cl)c3)c2)c(Cl)cn1 [ULIXERTINIB]                  n
3  N[C@@H]1CCCN(c2c(/C=C3\SC(=O)NC3=O)cccc2-c2ccccc2)C1                  n
4  COC(=O)N[C@@H](C)CNc1nccc(-c2cn(C(C)C)nc2-c2cc(Cl)cc(NS(C)(=O)=O)c2F)n1 [ENCORAFENIB]                  n
5  CC[C@H](Nc1ncnc2[nH]cnc12)c1nc2cccc(F)c2c(=O)n1-c1ccccc1 [IDELALISIB]                  n
6  C=CC(=O)N1CCC(Oc2cc3c(Nc4ccc(Cl)c(Cl)c4F)ncnc3cc2OC)CC1 [POZIOTINIB]                  y
7  COc1cc(OC)c(/C=C/S(=O)(=O)Cc2ccc(OC)c(NCC(=O)O)c2)c(OC)c1 [RIGOSERTIB]                  n
8  O=C(c1ccc(F)c(F)c1Nc1ccc(I)cc1F)N1CC(O)([C@@H]2CCCCN2)C1 [COBIMETINIB]                  n

----------
In this section we review reported Kd values for a set of molecules.
Target: Dual specificity protein kinase TTK (Homo sapiens); also: in the data inactive means no Kd found up to 30 µM
Sequence (P33981 whole entry): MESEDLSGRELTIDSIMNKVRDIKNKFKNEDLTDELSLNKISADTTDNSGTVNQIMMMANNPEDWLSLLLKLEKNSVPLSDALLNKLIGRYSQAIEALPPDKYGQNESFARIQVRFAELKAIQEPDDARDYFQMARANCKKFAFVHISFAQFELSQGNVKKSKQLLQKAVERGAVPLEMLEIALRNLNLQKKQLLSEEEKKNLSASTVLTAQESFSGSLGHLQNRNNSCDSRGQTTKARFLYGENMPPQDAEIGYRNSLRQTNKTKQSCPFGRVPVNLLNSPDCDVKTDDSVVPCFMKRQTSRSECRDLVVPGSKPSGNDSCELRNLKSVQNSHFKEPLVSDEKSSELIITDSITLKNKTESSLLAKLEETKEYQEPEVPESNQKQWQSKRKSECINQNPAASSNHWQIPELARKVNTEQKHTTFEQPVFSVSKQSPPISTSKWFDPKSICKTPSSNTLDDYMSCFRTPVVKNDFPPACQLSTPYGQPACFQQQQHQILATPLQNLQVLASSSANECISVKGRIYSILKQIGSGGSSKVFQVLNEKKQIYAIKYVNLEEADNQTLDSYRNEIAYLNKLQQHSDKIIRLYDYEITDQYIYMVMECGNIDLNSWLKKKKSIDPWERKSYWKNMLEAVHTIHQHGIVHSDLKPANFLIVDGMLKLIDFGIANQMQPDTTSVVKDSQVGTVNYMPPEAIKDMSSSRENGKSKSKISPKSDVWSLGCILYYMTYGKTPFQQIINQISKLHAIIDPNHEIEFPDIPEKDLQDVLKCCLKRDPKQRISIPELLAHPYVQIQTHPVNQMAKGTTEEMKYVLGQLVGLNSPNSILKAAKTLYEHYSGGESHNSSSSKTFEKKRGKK
The source made the active and inactive calls.
observed property: Kd

> print(dat)
                                   molecule               value
1  COC(=O)N[C@@H](C)CNc1nccc(-c2cn(C(C)C)nc2-c2cc(Cl)cc(NS(C)(=O)=O)c2F)n1  > 30 µM (inactive)
2  Cc1cc2c(F)c(Oc3ncnn4cc(OC[C@@H](C)OC(=O)[C@H](C)N)c(C)c34)ccc2[nH]1 [BRIVANIB ALANINATE]  > 30 µM (inactive)
3  Cc1nc(N)sc1-c1ccnc(Nc2ccc(N3CCOCC3)cc2)n1            0.016 µM
4   O=c1sn(-c2cccc3ccccc23)c(=O)n1Cc1ccccc1  > 30 µM (inactive)
5  CNS(=O)(=O)Nc1nccc(Cc2c(C)c3ccc(Oc4ncccn4)cc3oc2=O)c1F  > 30 µM (inactive)
6  Cc1ccc(-n2nc(C(C)(C)C)cc2NC(=O)NCc2cc(F)ccc2Oc2ccc3c(cnn3CCO)c2)cc1  > 30 µM (inactive)
7  COC(=O)[C@@]1(O)C[C@H]2O[C@]1(C)n1c3ccccc3c3c4c(c5c6ccccc6n2c5c31)C(=O)NC4 [K-252A]             0.03 µM
8  Cc1cc(-c2cc(O)ccc2Cl)cc2nnc(Nc3ccc(OCCN4CCCC4)cc3)nc12  > 30 µM (inactive)

----------
Biological target: UniProt:P29317
Sequence (P29317 whole entry): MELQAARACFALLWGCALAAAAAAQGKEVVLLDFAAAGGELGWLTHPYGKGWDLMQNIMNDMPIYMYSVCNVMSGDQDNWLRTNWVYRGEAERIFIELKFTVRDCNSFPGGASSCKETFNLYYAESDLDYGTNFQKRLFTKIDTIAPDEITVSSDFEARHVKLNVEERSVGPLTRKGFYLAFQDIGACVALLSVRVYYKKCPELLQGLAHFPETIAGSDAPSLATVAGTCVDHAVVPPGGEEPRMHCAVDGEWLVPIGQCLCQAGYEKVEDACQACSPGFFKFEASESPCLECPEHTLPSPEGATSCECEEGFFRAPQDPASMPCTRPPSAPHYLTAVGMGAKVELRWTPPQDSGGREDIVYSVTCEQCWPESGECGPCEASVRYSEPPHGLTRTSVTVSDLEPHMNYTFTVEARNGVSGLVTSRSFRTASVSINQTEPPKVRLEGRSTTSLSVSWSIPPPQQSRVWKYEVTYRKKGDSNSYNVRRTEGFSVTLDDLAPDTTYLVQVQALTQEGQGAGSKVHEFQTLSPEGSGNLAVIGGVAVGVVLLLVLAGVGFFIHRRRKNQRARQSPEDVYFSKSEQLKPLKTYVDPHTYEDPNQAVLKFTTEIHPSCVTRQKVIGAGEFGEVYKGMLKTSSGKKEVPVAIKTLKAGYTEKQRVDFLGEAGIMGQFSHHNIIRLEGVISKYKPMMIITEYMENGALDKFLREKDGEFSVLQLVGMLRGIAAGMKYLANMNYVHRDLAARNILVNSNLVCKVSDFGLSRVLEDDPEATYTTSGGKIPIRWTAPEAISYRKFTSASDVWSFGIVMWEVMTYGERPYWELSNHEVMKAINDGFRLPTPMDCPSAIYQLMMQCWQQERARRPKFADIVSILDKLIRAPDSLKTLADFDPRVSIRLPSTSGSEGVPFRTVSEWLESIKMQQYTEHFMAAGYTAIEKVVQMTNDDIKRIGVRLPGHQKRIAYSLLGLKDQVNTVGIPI
Active and inactive are the calls of the source.
Labels: 1 (active), 0 (inactive)

> print(dat)
                                    compound  assayed.target  assigned.category
 1  CC(=O)Nc1cccc(-n2c(=O)n(C3CC3)c(=O)c3c(Nc4ccc(I)cc4F)n(C)c(=O)c(C)c32)c1  UniProt:P29317                  0
 2  CN1CC[C@@H](c2c(O)cc(O)c3c(=O)cc(-c4ccccc4Cl)oc23)[C@@H]1CO  UniProt:P29317                  0
 3  COc1cc2nccc(Oc3ccc(NC(=O)Nc4cc(C)on4)c(Cl)c3)c2cc1OC  UniProt:P29317                  1
 4  COC(=O)[C@@]1(O)C[C@H]2O[C@]1(C)n1c3ccccc3c3c4c(c5c6ccccc6n2c5c31)C(=O)NC4 [K-252A]  UniProt:P29317                  0
 5  COc1cc(N2CCC(N3CCN(C)CC3)CC2)ccc1Nc1ncnc(Nc2ccccc2S(=O)(=O)C(C)C)n1  UniProt:P29317                  1
 6  C[C@@H](Nc1cc(F)cc(F)c1)c1cc(C(=O)N(C)C)cc2c(=O)cc(N3CCOCC3)oc12  UniProt:P29317                  0
 7  O=C(Nc1ccc(-c2ccnc(Nc3ccc(N4CCOCC4)cc3)n2)cc1)C1CCCN1 (configuration not stated)  UniProt:P29317                  0
 8  Cc1c(F)cc(C(=O)NC2CC2)cc1-c1ccc(C(=O)NCC(C)(C)C)cn1  UniProt:P29317                  0
 9  CNC(=O)c1ccc(-c2cnc3ncc(Cc4ccc5ncccc5c4)n3n2)cc1F  UniProt:P29317                  0
10  COc1ccc(-c2ccc3c(N4CCOC[C@@H]4C)nc(N4CCOC[C@@H]4C)nc3n2)cc1CO  UniProt:P29317                  0
11   O=c1sn(-c2cccc3ccccc23)c(=O)n1Cc1ccccc1  UniProt:P29317                  0
12  Cc1cc(-c2cc(O)ccc2Cl)cc2nnc(Nc3ccc(OCCN4CCCC4)cc3)nc12  UniProt:P29317                  1
13  COc1cc(OC)c(/C=C/S(=O)(=O)Cc2ccc(OC)c(NCC(=O)O)c2)c(OC)c1  UniProt:P29317                  0
14  CN(C)C(=O)c1cc2cnc(Nc3ccc(N4CCNCC4)cn3)nc2n1C1CCCC1  UniProt:P29317                  0
15   CCn1c(=O)c(-c2cc[nH]n2)cc2c(C)nc(N)nc21  UniProt:P29317                  0
16  C=CC(=O)N1CCC(Oc2cc3c(Nc4ccc(Cl)c(Cl)c4F)ncnc3cc2OC)CC1  UniProt:P29317                  0
17  O=C(c1ccc(F)c(F)c1Nc1ccc(I)cc1F)N1CC(O)([C@@H]2CCCCN2)C1  UniProt:P29317                  0

----------
Target: Platelet-derived growth factor receptor beta (Homo sapiens); also: in the data inactive means no Kd found up to 30 µM
Sequence (P09619 whole entry): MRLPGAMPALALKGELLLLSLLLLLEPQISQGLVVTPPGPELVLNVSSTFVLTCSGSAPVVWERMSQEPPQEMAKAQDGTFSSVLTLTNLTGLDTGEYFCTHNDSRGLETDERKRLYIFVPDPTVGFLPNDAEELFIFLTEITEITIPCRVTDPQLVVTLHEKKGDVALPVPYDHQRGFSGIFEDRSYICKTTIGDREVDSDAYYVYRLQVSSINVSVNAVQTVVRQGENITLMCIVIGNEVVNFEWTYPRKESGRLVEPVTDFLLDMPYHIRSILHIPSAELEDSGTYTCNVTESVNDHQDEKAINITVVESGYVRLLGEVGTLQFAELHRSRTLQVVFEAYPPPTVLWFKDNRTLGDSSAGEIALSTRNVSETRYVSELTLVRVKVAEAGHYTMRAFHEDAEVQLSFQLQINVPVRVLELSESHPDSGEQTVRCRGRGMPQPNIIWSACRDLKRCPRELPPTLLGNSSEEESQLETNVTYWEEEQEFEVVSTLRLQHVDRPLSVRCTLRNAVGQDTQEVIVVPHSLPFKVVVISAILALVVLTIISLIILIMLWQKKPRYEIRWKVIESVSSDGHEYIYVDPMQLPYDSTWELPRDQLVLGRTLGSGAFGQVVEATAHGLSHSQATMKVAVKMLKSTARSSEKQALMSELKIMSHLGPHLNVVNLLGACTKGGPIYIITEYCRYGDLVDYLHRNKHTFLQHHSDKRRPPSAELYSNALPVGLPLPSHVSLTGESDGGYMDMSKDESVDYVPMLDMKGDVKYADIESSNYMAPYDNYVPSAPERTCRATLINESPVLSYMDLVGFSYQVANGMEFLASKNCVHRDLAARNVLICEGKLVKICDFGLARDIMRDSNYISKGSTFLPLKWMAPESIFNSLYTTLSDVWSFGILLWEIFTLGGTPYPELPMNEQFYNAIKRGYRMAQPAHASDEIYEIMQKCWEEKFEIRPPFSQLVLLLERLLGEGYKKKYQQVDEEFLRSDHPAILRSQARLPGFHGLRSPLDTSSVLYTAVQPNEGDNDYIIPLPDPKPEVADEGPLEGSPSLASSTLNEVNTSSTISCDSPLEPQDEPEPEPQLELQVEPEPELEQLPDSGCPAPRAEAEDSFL
Activity calls are given as the source filed them.
Labels: true = active, false = inactive

> print(dat)
                                item.smiles  assigned.category
1   CCn1c(=O)c(-c2cc[nH]n2)cc2c(C)nc(N)nc21              false
2  COc1cc2nccc(Oc3ccc(NC(=O)NC4CC4)c(Cl)c3)c2cc1C(N)=O               true
3  Cn1cc(-c2ccc3nnc(C(F)(F)c4ccc5ncccc5c4)n3n2)cn1              false
4  COCCNCc1ccc(-c2cc3nccc(Oc4ccc(NC(=S)NC(=O)Cc5ccc(F)cc5)cc4F)c3s2)nc1               true
5  C[C@@H](c1ccc2nccn2c1)n1nnc2ncc(-c3cnn(C)c3)nc21              false
6  CN1CCC(CNc2ccc3ncc(-c4cccc(OC(F)(F)F)c4)n3n2)CC1               true
7  Cc1ccc(-n2nc(C(C)(C)C)cc2NC(=O)NCc2cc(F)ccc2Oc2ccc3c(cnn3CCO)c2)cc1              false
8  CC[C@@H]1C(=O)N(C)c2cnc(Nc3ccc(C(=O)N[C@H]4CC[C@H](N5CCN(CC6CC6)CC5)CC4)cc3OC)nc2N1C(C)C              false
